Target: M. musculus LNK SH2 domain R387H (mouse, UniProt O09039 325-438, R387H)
Sequence (O09039 325-438 R387H): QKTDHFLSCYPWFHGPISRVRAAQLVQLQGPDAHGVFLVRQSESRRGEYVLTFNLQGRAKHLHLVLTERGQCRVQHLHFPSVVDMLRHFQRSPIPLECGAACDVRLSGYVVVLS
Experiment: SPR
Where no end group is shown, it is not given here. [ ]: non-standard residue; d: D form. pY = N[C@@H](Cc1ccc(OP(=O)(O)O)cc1)C(=O)O
QUANTITY_MEASURED: Kd (nM)
Numbers only, in nM.

Prompt: Look at this binder and give its reported Kd. FTPD[pY]ELLTEND (also: biotin, site not given here) [biotinylated JAK2 pY813 peptide]
Completion: 242
